assayed.system: T1, recombinant purified FRα (ECL assay calibrator) (human, UniProt P15328 25-234)
T1 construct: Calibrator of the ECL sandwich assays; also called FRα calibrator; FRα standard
T1 sequence (P15328 25-234 limits assumed): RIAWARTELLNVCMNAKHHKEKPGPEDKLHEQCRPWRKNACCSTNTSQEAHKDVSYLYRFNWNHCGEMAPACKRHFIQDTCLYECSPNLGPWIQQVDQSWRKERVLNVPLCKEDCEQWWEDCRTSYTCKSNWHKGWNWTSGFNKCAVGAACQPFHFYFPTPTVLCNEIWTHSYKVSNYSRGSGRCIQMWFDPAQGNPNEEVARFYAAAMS
assay.protocol: ECL sandwich, FRα calibrator; capture 1D2.G8.G10; binder = detection Ab

| binder | Specific signal at 500 pg/mL |
| --- | --- |
| Monoclonal antibody 24H8.F3 (antibody, mouse IgG1, V domains shown, Murine IgG1 kappa from hybridoma; also called ATCC PTA-123097) VH: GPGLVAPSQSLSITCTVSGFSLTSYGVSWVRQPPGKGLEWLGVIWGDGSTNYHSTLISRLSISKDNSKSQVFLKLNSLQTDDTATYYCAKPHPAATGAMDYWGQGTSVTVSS VL: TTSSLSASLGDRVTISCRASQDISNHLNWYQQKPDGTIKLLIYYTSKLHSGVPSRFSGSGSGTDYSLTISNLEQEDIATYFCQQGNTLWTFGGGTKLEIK | 64 |
| Monoclonal antibody 1C6.E12.G8 (antibody, mouse IgG1, V domains shown, Murine IgG1 kappa from hybridoma; also called ATCC PTA-123091) VH: SGARELVKPGASVKLSCKTSGFTFNSSYITWLKQKPGQSLEWIAWIYAGNGGTTYNQKFTGKAQLTVDTSSSTAYMQFSSLTTEDSAIYYCASETYTNYWYFDVWGSGTTVTVSS VL: QSPASLSASVGETVTITCRASGNIHNYLAWYQQKQGKSPQLLVYNAKTLADGVPSRFSGSGSGTQYSLKINSLQPEDFGSYYCQHFWSTPYTFGGGTKLEIK | 53 |
| Monoclonal antibody 1D2.D8.G10 (antibody, mouse IgG1, V domains shown, Murine IgG1 kappa from hybridoma; also called 1D2.D8.G0; ATCC PTA-123098) VH: QSGTVLARPGASVKMSCKASGYSFTSNWMHWIKQRPGQGLEWIGAIYPGNSDTSYNQKFKGKAKLTAVTSASTAYMELSSLTNEDSAVYHCTRGDGSSFWYFDVWGAGTTVTVSS VL: QSPASLVVSLGQRATISCRASKSVSTSGYSYMYWYQQKSGQPPKLLIYLASNLESGVPARFSGGGSGTDFTLNIHPVEEEDAATYYCQQSRELPPTFGGGTKLEIK | 87 |
